Sourced from the supplement of paper PMC9170038

# System: MS2 coat protein
# test method notes: apparent KD of MS2 coat protein; designed switch direction (-1 OFF switch, 1 ON switch): 1; higher = weaker reporter binding
# condition details: input ligand: FMN 200 uM
Here the recorded apparent KD of MS2 coat protein is given for each entry.
A number alone suffices; assume nM.

Below are worked cases with known answers.
- ordered residues: "GUUACAUGAGGAUCACCCAUGUGUGUGUGGGAGUGAGUGGCUUAGGAUAUCUAUGAUUUAAGUUAAGAGAAGGAAGAUUGUUGU [SS-NG3-LRO03] (Eterna round: R96, puzzle: Same State NG 3)"
  observed: 415
- ordered residues: "GUUACAUGAGGAUCACCCAUGUAUGUGUGGGAGUAAGUGUCUUAGGAUAUCUAUGAUAUAAUUUAAGAGAAGGAAGAUUGUUGU [JMF's solution 75] (Eterna round: R96, puzzle: Same State NG 3)"
  observed: 103
- ordered residues: "GUGGAGGGUUAAGGAUAUUGAAUACAUAUGUUUAACAUGAGGAUCACCCAUGUGGGUUGCGGUAUCGAGAAGGUAAAUUACUGG [salish99_SSNG2_r04_035] (Eterna round: R96, puzzle: Same State NG 2)"
  observed: 192
- ordered residues: "AAACACAUGAGGAUCACCCAUGUAGCGCCAUUGAGGCGCACAUAGGAUAUCCGGUCCAAAAGACCGGAGAAGGGUGAAAGAAAA [Soesen] (Eterna round: R96, puzzle: Same State NG 3)"
  observed: 125
- ordered residues: "GGAGCCGGCCUAGGAUAUUUCAUAUAAUAACAUGAGGAUCACCCAUGUAGGCCAGAAGGCCUUGGGAAGAAGGAGGUCGGCUCC [Loop Effect - U25,U28] (Eterna round: R96, puzzle: Same State NG 2)"
  observed: 13.1

Reported apparent KD of MS2 coat protein for CGCCAAUUGGCACAGGAUAUGAGCAUGCUCACAUGAGGAUCACCCAUGUGAUUACCAACGCAAAAUCAGAAGGGUGCCCUCGUCA [Beanza] (Eterna round: R96, puzzle: Same State 2) : what is it? 80.6

Now the sequence UAAAGCAAGUCAGGAUAUGGGAAAGGAAGUGUACUAGAAGGGACUUGUAGGAACAUGAGGAUCACCCAUGUACCGCGGACUAAA [PowerStrip SSNG 1.7] (Eterna round: R96, puzzle: Same State NG 1) 31.7

Request: GCUAGAAUUAAAGCCAACAUGAGGAUCACCCAUGUAUGUUGGCAGGAUAUCGUUUGCAAAGCAAACGAGAAGGGCCAUACUAGC [Mat - Same State NG 3 - JL Mod - D22] (Eterna round: R96, puzzle: Same State NG 3) 33.4

Now try GCUGCAAAGGCAGGAUAUGGGUCCAGAGCGCAAAUGCGCUCUGGUACAUGAGGAUCACCCAUGUCCCAGAAGGGCCCAAGCAGC [Inleedbi] (Eterna round: R96, puzzle: Same State NG 2) . 17

// same read-out, input: AAUAUUAAGGCGGACGUUAACCGCAACCGACAUGAGGAUCACCCAUGUGCUUCAAGCUCAGACAUCUCUUAUCGUCA [Arrizareat] (Eterna round: R96, puzzle: Sensor for hsa-mir-208a) 84.3

Proceed to CUGCUCGGGUGAGGAUAUGCCGCCGUUUCGGCUGCAGAAGGUGCUACGUUACAUGAGGAUCACCCAUGUCUCUGUUGUUUCGUU [salish99_SSNG1_r04_965] (Eterna round: R96, puzzle: Same State NG 1) 72.1

Entry CUGAGAUGUCAAGGAUAUGCUACCGUUUCGGUAGCAGAAGGUGAUCACAUGAGGAUCACCCAUGUAUGCAUGCGUGAGCGUGCU [JL SSNG1 3.59] (Eterna round: R96, puzzle: Same State NG 1) please 234

What about UUAAAGAAUUAAGGAUAUUGAAUACAUAUGUUUAACAUGAGGAUCACCCAUGUGGGUUGCGGUAUCGAGAAGGUAAAAUAAUAG [Mat - Same State NG 2 - JL mod - D5] (Eterna round: R96, puzzle: Same State NG 2) ? 108

Now consider UGUUGUAUUACAGGAUAUCUAUGAUUGUUAUUUAGAGAAGGGUAUUCACAUGAGGAUCACCCAUGUAUAUACGAGGAAGUUGUG [JMF's solution 60] (Eterna round: R96, puzzle: Same State NG 1) . 52.3

And for UUCUCUCUGGUAGGAUAUGUAGGAUAUGUACAUGAGGAUCACCCAUGUCAGUUAAUGACAGAAGGAUAGAAGGACCAGAUCUCU [pwkr ssNG2 2FMN 1F5s.2] (Eterna round: R96, puzzle: Same State NG 2) ? 115

Can you handle GGUAGGUUACUACCAACACAUGAGGAUCACCCAUGUUAUGGGAAGGAUAUGGUACCUAUUUGGUACCAGAAGGUCCAGUUAAUU [Fiskers NG3ss - 16] (Eterna round: R96, puzzle: Same State NG 3) next? 77.6

Next record, please: GGAAAGAGGUUAGGAUAUGCAUGGCUGGGACAUGAGGAUCACCCAUGUAAUAGAAGAAAUCUAGGGUAGAAGGGACAAGGAAGG [ssng2 v2 a] (Eterna round: R96, puzzle: Same State NG 2) 507

Similarly, UUGAAGAAUUAAGGAUAUUGAGUACAUAUGUAAAACAUGAGGAUCACCCAUGUGGGUUGCGGUAUCGAGAAGGUAAAAUAAUAG [Mat - same State NG 2 - JL mod - D71] (Eterna round: R96, puzzle: Same State NG 2) ? 74.5

###

# Test system: MS2 coat protein
# test method notes: apparent KD of MS2 coat protein; higher = weaker reporter binding
# condition details: Eterna round: R107; input ligand: theophylline 2 mM
apparent KD of MS2 coat protein for assorted sequences
Reply numerically in nM, unit not repeated.

- ordered residues: "GCACCAGGUACGGAUACCAGCUGCCACAGUUACAUGAGGAUCACCCAUGUGAAAACGUGUAGCCCUUGGCAGCUGUACCUGGUGC [SSThB NP+V+V2 #8 Same Structure]"
  apparent KD of MS2 coat protein [nM]: 14.6
- ordered residues: "AAAUAAAUACAUGAGGAUCACCCAUGUGAAGGAGCGCCCGUUAGGGCAGGUAGGUCGCACAUGAAUAACUCCGUGCAAAAGCACA [ArgEX 18 #OpenEnded]"
  apparent KD of MS2 coat protein [nM]: 37.1

Fill blank: measured apparent KD of MS2 coat protein of the sequence UCGGGCAUGGCGGCCGCCACUGGUUGGCGUGCGGAUGAGGGAACAUGAGGAUCACCCAUGUUGGUUAGGACCGGGCUUGCGUCGU [knkmullin] is ____. 15.2

###

# Tested on: K4 kissing-loop RNA reporter
# test method notes: apparent KD of K4 kissing-loop reporter; higher = weaker reporter binding
# condition details: Eterna round: R107; input ligand: none
observable: apparent KD of K4 kissing-loop reporter (nM)
All answers are understood in nM, so give the number only.

Example results:
- ordered residues: "UUUCGGCUCUGAGGAUAUUCGGACAAAUAUAGUGAUGUUGUAUAAGGAGGAGGGUGUUGGCAGUGAGGAGAAGGCAGAGGAGGAU [#07 K4 FMN B Exclusion]"
  apparent KD of K4 kissing-loop reporter (nM): 397
- ordered residues: "CACGGAGUGAUGUUCCGACCGAGGAACGAUACCAGACAAGUAUACGUCCCUUGGCAGCGUUUCUUAUAUAGUCAACGUUACCGUA [Theo A Ex t3]"
  apparent KD of K4 kissing-loop reporter (nM): 507
- ordered residues: "CCUAUCUCAUACGAUACCAGUGAAUAACCAGUGAUGUUGGAAUAACCAAGGAAUAUUUUACACCCUUGGCAGCGUAUGGGAUAGG [Ex Theophylline B K4 25]"
  apparent KD of K4 kissing-loop reporter (nM): 305
- ordered residues: "GCUAGUUUGGAAGGAUAUUCGUGCGAUCAAGUCAAACUUUACUGAGGGCGUUUUGGAGUGAUGUUCGAAGAAGGUCCCUUACUUA [theeternabot_exclusion_KL_FMN_B_28]"
  apparent KD of K4 kissing-loop reporter (nM): 999
- ordered residues: "GAAACGUUGCGGACUAUCGCAUAAAGUCACCGAGGACCGGUACGGCCGCCACUCGCCAGUGAUGUUGGCGUGUUUGCGCGCUGUG [Titebebi]"
  apparent KD of K4 kissing-loop reporter (nM): 95.4

Continue with the sequence presented below.
Value lookup for apparent KD of K4 kissing-loop reporter; key = AUUGAACAAGUGAUGUUUGUAUUUUCCGAAGGAGCGUCUAAUAAGACAGGUAGGUCGCGGUUUCUCUUAAUAAUCAGGUCUUUAA [JR_Nu_ExcArginiA_Sub021] 279

###

Consider the following sequences and their measured apparent KD of K4 kissing-loop reporter readings.
# Tested on: K4 kissing-loop RNA reporter;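 further: bound reporter read as fluorescence of individual clusters on recovered sequencing chips by microscopy, with normalized cluster intensities fitted with a binding model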
# test method notes: apparent KD of K4 kissing-loop reporter; higher = weaker reporter binding
# condition details: Eterna round: R107; input ligand: FMN 200 uM
Quick note: give the figure in nM, leave out the unit.

Study these solved cases before continuing.
- ordered residues: "GUUACGCAUGGAAGGAGCGCAGGCUCAACUUGAAGCUCAGUGAUGUUGAGCAAAUUAAAACUGCAGGUAGGUCGCCAUGUGUAAC [Ex Arginine B K4 27]"
  unit of measurement: "nM"
  apparent KD of K4 kissing-loop reporter: 548
- ordered residues: "GCAGUGAUGUUGCGAAUCGGCCAUGAUGCAGAGGAUAUCGUGCCUUCGAGAAGGUUGUAUAGAGGAUACGAUACUAUUAAUGACG [Same State FMN A GF 6]"
  unit of measurement: "nM"
  apparent KD of K4 kissing-loop reporter: 395
- ordered residues: "AUGGUGGAGGAGUGAUGUUCUUGGAGUAGGUAGGAUAUGAGUGAUGUUAGAAGGAUCGGAGUGAUGUUCCAGGUGGUUGUGUUGU [KL-SSFMN-A2]"
  unit of measurement: "nM"
  apparent KD of K4 kissing-loop reporter: 570
- ordered residues: "AAAUAGGUGUGCGAUACCAGCCGGAGUGAUGUUCCGUGUUGUACUGGCUGCACCUACGCCGGCCCUUGGCAGCGUGCUCCAUUUA [Enonin]"
  unit of measurement: "nM"
  apparent KD of K4 kissing-loop reporter: 177
- ordered residues: "GGAUAGGAUAGAGGAUAUGGAAAACACAGAAAUAACUUGUUGUGUUUAUCCAUAGGGAGUGAUGUUCCAGAAGGCUGUCCUAUCG [MatMod 20 - Jieux - Exclusion - FMN B]"
  unit of measurement: "nM"
  apparent KD of K4 kissing-loop reporter: 284
- ordered residues: "GAGGCCAGACGGAGUGAUGUUUCGUAUGAUACCAGCAGCGAAAGCUGCCCUUGGCAGCAUGCCACGGCCUCGGCGGGAAACCGCC"
  unit of measurement: "nM"
  apparent KD of K4 kissing-loop reporter: 372

Param readout= apparent KD of K4 kissing-loop reporter; system= K4 kissing-loop RNA reporter; entry= UUGUUUGGUUGAGAGGUUGGGCGAGAUGAUACCAGUAGAGAAGAGUACCCUUGGCAGCAUAGGAAAGAUAUAGUGAUGUUGUAUA [SSTheophA.Q] ; returns value. 354

// repeat for UGACUGGAUGGAAGGAGCGCUAAACUCCUAGUGAUGUUAGGGACACGAGGCAAAGCCUCGAAGCAGGUAGGUCGCCAUCUAGUCU [FiskerMod 22 - Jieux - Same State - Arginine B] and report 184

Next entry: GGUAGCAUGGCGGCCGCCACUGAGGCCCUAUACGAGUCCUAAACAACCUAGUGAUGUUAGGAGUCCAGGACCGGGCCAUGCUACC 271
